Below is a list of entries, each paired with its recorded normalised viability value.
System: HDQ-P1
Test: normalised viability (% of control), CellTiter-Blue; higher = more viable cells (about 100 = DMSO control)
Details: 3 nM; incubation time: 72 h
Please respond with the number in % and leave the unit unwritten.

# get_value(readout= normalised viability, system= HDQ-P1) for O=C(O)C1(C(=O)O)CCC1.[NH2-].[NH2-].[Pt+2]
108

# get_value(readout= normalised viability, system= HDQ-P1) for NCCCNCCSP(=O)(O)O
101

# get_value(readout= normalised viability, system= HDQ-P1) for COc1cc([C@@H]2c3cc4c(cc3[C@@H](O[C@@H]3O[C@@H]5CO[C@@H](c6cccs6)O[C@H]5[C@H](O)[C@H]3O)[C@H]3COC(=O)[C@H]23)OCO4)cc(OC)c1O [Teniposide]
113

# get_value(readout= normalised viability, system= HDQ-P1) for COc1cc2c(Oc3ccc4[nH]c(C)cc4c3F)ncnc2cc1OCCCN1CCCC1
90.6

# get_value(readout= normalised viability, system= HDQ-P1) for CCN(CC)CCCC(C)Nc1c2ccc(Cl)cc2nc2ccc(OC)cc12 (stereo not given)
112

----------
Test system: DU-4475
Assay: normalised viability (% of control), CellTiter-Blue; higher = more viable cells (100 = DMSO, 0 = benzethonium chloride kill control)
Details: 1 nM; incubation time: 72 h
Below is a list of entries, each paired with its recorded normalised viability value.
Please respond with the number in % and leave the unit unwritten.

O=C(O)C1(C(=O)O)CCC1.[NH2-].[NH2-].[Pt+2] [Carboplatin]: 104

For CC[C@H](Nc1ncnc2[nH]cnc12)c1nc2cccc(F)c2c(=O)n1-c1ccccc1 [CAL-101] , what is its reported normalised viability?
106

For CCCCC(=O)OCC(=O)[C@]1(O)Cc2c(O)c3c(c(O)c2[C@@H](O[C@H]2C[C@H](NC(=O)C(F)(F)F)[C@H](O)[C@H](C)O2)C1)C(=O)c1c(OC)cccc1C3=O [Valrubicin] , what is its reported normalised viability?
93.9

For CCc1cncnc1N1CCN(Cc2nc3ccc(C(F)(F)F)cc3[nH]2)CC1 , what is its reported normalised viability?
93.2

For C=CC(=O)Nc1cc2c(Nc3ccc(F)c(Cl)c3)ncnc2cc1OCCCN1CCOCC1 [Canertinib] , what is its reported normalised viability?
98.5

----------
System: MDA-MB-436
Assay: normalised response (% of control), CellTiter-Glo; higher = more viable cells (100 = DMSO, 0 = benzethonium chloride kill control)
Conditions: incubation time: 72 h
Experimental Endpoint: normalised response (%)
Please respond with the number in % and leave the unit unwritten.

Reference set, count: 2
O=C(O)CCCCC(CCSCc1ccccc1)SCc1ccccc1 (stereo not drawn) [CPI-613] (10 nM): 105
O=C(Cc1ccc(-c2ccc(OCCN3CCOCC3)cc2)cn1)NCc1ccccc1 [KX2-391] (1 nM): 102

# get_value(readout= normalised response, system= MDA-MB-436) for CC[C@@H]1C(=O)N(C)c2cnc(Nc3ccc(C(=O)NC4CCN(C)CC4)cc3OC)nc2N1C1CCCC1 [BI 2536] (0.1 nM)
104

----------
Test system: HCC1937
Assay: normalised response (% of control), CellTiter-Glo; higher = more viable cells (100 = DMSO, 0 = benzethonium chloride kill control)
Conditions: incubation time: 72 h
Experimental Endpoint: normalised response (%)
Please respond with the number in % and leave the unit unwritten.

O=C(O)C1(C(=O)O)CCC1.[NH2-].[NH2-].[Pt+2] [Carboplatin] (100 nM): 94.2
C=CCc1cccc(/C=N/NC(=O)CN2CCN(Cc3ccccc3)CC2)c1O [PAC-1] (100 nM): 97.1
Nc1ncn([C@H]2C[C@H](O)[C@@H](CO)O2)c(=O)n1 [Decitabine] (100 nM): 93.2

Alright, here's another compound for you.
For N#Cc1ccc(C(c2ccc(C#N)cc2)n2cncn2)cc1 [Letrozole] (100 nM) , what is its reported normalised response?
94.2

----------
System: BT-474
Test: drug sensitivity score (DSS), CellTiter-Glo (DSS (AUC-based score)); higher = stronger drug effect (viability inhibition or cytotoxicity); extreme values may be limits of the assay
Settings: incubation time: 72 h
Experimental Endpoint: drug sensitivity score
// return just the number, without any unit appended

Reference set, count: 3
CCN(CC)CCCC(C)Nc1c2ccc(Cl)cc2nc2ccc(OC)cc12 (stereo not given): 0
O=C(O)C1(C(=O)O)CCC1.[NH2-].[NH2-].[Pt+2]: 0
O=C(O)CCCCC(CCSCc1ccccc1)SCc1ccccc1 (stereo not given): 0

For CC(=O)Nc1cccc(-n2c(=O)n(C3CC3)c(=O)c3c(Nc4ccc(I)cc4F)n(C)c(=O)c(C)c32)c1 , what is its reported drug sensitivity score?
5.25

For O=C(/C=C/c1cccnc1)NCCCCC1CCN(C(=O)c2ccccc2)CC1 , what is its reported drug sensitivity score?
13.4

----------
Below is a list of entries, each paired with its recorded normalised response value.
System: DU-4475
Test: normalised response (% of control), CellTox Green; higher = less cell death (100 = DMSO, 0 = benzethonium chloride kill control)
Settings: incubation time: 72 h
Please respond with the number in % and leave the unit unwritten.

C=CCc1cccc(/C=N/NC(=O)CN2CCN(Cc3ccccc3)CC2)c1O [PAC-1] (1000 nM): 101

For COc1cc2c(NC3CCN(C(C)C)CC3)nc(C3CCCCC3)nc2cc1OCCCN1CCCC1 [UNC0638] (1000 nM) , what is its reported normalised response?
91.6

For O=C(O)C1(C(=O)O)CCC1.[NH2-].[NH2-].[Pt+2] [Carboplatin] (100 nM) , what is its reported normalised response?
105

For C=CC(=O)N1CCC[C@@H](n2nc(-c3ccc(Oc4ccccc4)cc3)c3c(N)ncnc32)C1 [Ibrutinib] (100 nM) , what is its reported normalised response?
103

For N#Cc1ccc(C(c2ccc(C#N)cc2)n2cncn2)cc1 [Letrozole] (100 nM) , what is its reported normalised response?
101

----------
Below is a list of entries, each paired with its recorded drug sensitivity score value.
Test system: BT-549
Assay: drug sensitivity score (DSS), CellTiter-Blue viability (DSS (AUC-based score)); higher = stronger viability inhibition; extreme values may be limits of the assay
Conditions: incubation time: 72 h
// return just the number, without any unit appended

Reference set, count: 5
Oc1ncc(N(CCCl)CCCl)c(O)n1: 0
C=CC(=O)Nc1cc2c(Nc3ccc(F)c(Cl)c3)ncnc2cc1OCCCN1CCOCC1: 6.86
COc1cc2nccc(Oc3ccc(NC(=O)Nc4cc(C)on4)c(Cl)c3)c2cc1OC: 2.11
NCCCNCCSP(=O)(O)O: 0
N#Cc1ccc(C(c2ccc(C#N)cc2)n2cncn2)cc1: 0

Alright, here's another compound for you.
For Cc1ccc(-c2cc(C(F)(F)F)nn2-c2ccc(S(N)(=O)=O)cc2)cc1 , what is its reported drug sensitivity score?
0

----------
Test system: HDQ-P1
Assay: normalised viability (% of control), CellTiter-Blue; higher = more viable cells (about 100 = DMSO control)
Settings: 1000 nM; incubation time: 72 h
Below is a list of entries, each paired with its recorded normalised viability value.
Please respond with the number in % and leave the unit unwritten.

Reference set, count: 3
CCN(CC)CCCC(C)Nc1c2ccc(Cl)cc2nc2ccc(OC)cc12 (centres undefined): 84.9
Cc1ccc(-c2cc(C(F)(F)F)nn2-c2ccc(S(N)(=O)=O)cc2)cc1: 83.2
CCCCC(=O)OCC(=O)[C@]1(O)Cc2c(O)c3c(c(O)c2[C@@H](O[C@H]2C[C@H](NC(=O)C(F)(F)F)[C@H](O)[C@H](C)O2)C1)C(=O)c1c(OC)cccc1C3=O: 58

For O=C(O)C1(C(=O)O)CCC1.[NH2-].[NH2-].[Pt+2] , what is its reported normalised viability?
97.1

For CCCS(=O)(=O)Nc1ccc(F)c(C(=O)c2c[nH]c3ncc(-c4ccc(Cl)cc4)cc23)c1F , what is its reported normalised viability?
90.5

For CC[C@H](Nc1ncnc2[nH]cnc12)c1nc2cccc(F)c2c(=O)n1-c1ccccc1 , what is its reported normalised viability?
82.4

For NCCCNCCSP(=O)(O)O , what is its reported normalised viability?
89.8

For COc1cc2nccc(Oc3ccc(NC(=O)Nc4cc(C)on4)c(Cl)c3)c2cc1OC , what is its reported normalised viability?
72.5

For COc1cc([C@@H]2c3cc4c(cc3[C@@H](O[C@@H]3O[C@@H]5CO[C@@H](c6cccs6)O[C@H]5[C@H](O)[C@H]3O)[C@H]3COC(=O)[C@H]23)OCO4)cc(OC)c1O [Teniposide] , what is its reported normalised viability?
82.3

----------
Test system: MDA-MB-468
Test: drug sensitivity score (DSS), CellTiter-Glo (DSS (AUC-based score)); higher = stronger drug effect (viability inhibition or cytotoxicity); extreme values may be limits of the assay
Conditions: incubation time: 72 h
Below is a list of entries, each paired with its recorded drug sensitivity score value.
// return just the number, without any unit appended

Reference set, count: 2
C[C@H]1C[C@@H]2[C@H]([C@@H](O)C[C@@]3(C)[C@H]2CC[C@]3(O)C(=O)CO)[C@@]2(C)C=CC(=O)C=C12 [Methylprednisolone]: 0
C=CC(=O)Nc1cc2c(Nc3ccc(F)c(Cl)c3)ncnc2cc1OCCCN1CCOCC1 [Canertinib]: 10.6

Alright, here's another compound for you.
For Nc1nc(F)nc2c1ncn2[C@@H]1O[C@H](CO)[C@@H](O)[C@@H]1O [Fludarabine] , what is its reported drug sensitivity score?
0

Entry source: the supplement of paper PMC4862054
